Test system: FaDu cell line
ASSAY OVERVIEW: Prodrug Activation in Hypoxic Stirred Tumour Cell Suspensions
CONDITION SUMMARY: 10 μM, 4 hours, 0.2% O2
MEASUREMENT KIND: Fraction of prodrug converted to active form, Hypoxic 0.2% O2

>  <MOLECULE>
Cc1nc(N[C@H]2CC[C@@H](Oc3nc(N4CCOCC4)cc4ncc(N(Cc5cnc([N+](=O)[O-])n5C)S(C)(=O)=O)cc34)CC2)ccc1F [LFA2011]

>  <REPORTED MEASUREMENT>
C (C is 0.02 to 0.05)

$$$$
>  <MOLECULE>
Cn1c(CN(c2cnc3cc(N4CCOCC4)nc(OC4CCC(NC(=O)c5ncccn5)CC4)c3c2)S(C)(=O)=O)cnc1[N+](=O)[O-] (stereo not drawn) [LFA016]

>  <REPORTED MEASUREMENT>
C (C is 0.02 to 0.05)

$$$$
>  <MOLECULE>
Cn1c(COc2cnc3cc(N4CCOCC4)nc(O[C@H]4CC[C@@H](N(C)c5ncccn5)CC4)c3c2)cnc1[N+](=O)[O-] [LFA2071]

>  <REPORTED MEASUREMENT>
A (A is 0.15 to 1)

$$$$
>  <MOLECULE>
CN(C)C(=O)COc1cnc(N[C@H]2CC[C@@H](Oc3nc(N4CCOCC4)cc4ncc(OCc5cnc([N+](=O)[O-])n5C)cc34)CC2)nc1 [LFA114]

>  <REPORTED MEASUREMENT>
A (A is 0.15 to 1)

$$$$

----------
Entries and their pIC50 values follow.
TGT: DNA-PK (Homo sapiens)
Construct: purchased Invitrogen PR9107A
ASSAY OVERVIEW: DNA-PK Assay for Biochemical Enzymatic Inhibition (ADP Glo Kinase assay)
CONDITION SUMMARY: DNA-PK enzyme, Table 1
pIC50: −log10 of the molar value.
MEASUREMENT KIND: pIC50

>  <QUERY SMILES>
N=C(N)N[C@H]1CC[C@@H](Oc2nc(N3CCOCC3)cc3ncccc23)CC1

>  <TGT>
DNA-PK (Homo sapiens)

>  <REPORTED MEASUREMENT>
8.00 to 9.00

$$$$
>  <QUERY SMILES>
c1ccc(-c2cnc3cc(N4CCOCC4)nc(O[C@H]4CC[C@@H](n5ccnc5)CC4)c3c2)cc1

>  <TGT>
DNA-PK (Homo sapiens)

>  <REPORTED MEASUREMENT>
6.82 to 8.00

$$$$
>  <QUERY SMILES>
O=S1(=O)CCCN1c1cnc2cc(N3CCOCC3)nc(O[C@H]3CC[C@@H](Nc4ncccn4)CC3)c2c1

>  <TGT>
DNA-PK (Homo sapiens)

>  <REPORTED MEASUREMENT>
6.82 to 8.00

$$$$
>  <QUERY SMILES>
CN(C)C(=O)Cn1ccc2nc(N[C@H]3CC[C@@H](Oc4nc(N5CCOCC5)cc5ncccc45)CC3)ncc21

>  <TGT>
DNA-PK (Homo sapiens)

>  <REPORTED MEASUREMENT>
> 9.30

$$$$
>  <QUERY SMILES>
Cn1c(=O)n(C)c2nc(N[C@H]3CC[C@@H](Oc4nc(N5CCOCC5)cc5ncccc45)CC3)ncc21

>  <TGT>
DNA-PK (Homo sapiens)

>  <REPORTED MEASUREMENT>
> 9.30

$$$$
>  <QUERY SMILES>
Cn1cc(-c2cnc3cc(N4CCOCC4)nc(O[C@H]4CC[C@@H](n5ccnc5)CC4)c3c2)cn1

>  <TGT>
DNA-PK (Homo sapiens)

>  <REPORTED MEASUREMENT>
6.82 to 8.00

$$$$
>  <QUERY SMILES>
Cn1cc([C@H]2CC[C@@H](Oc3nc(N4CCOCC4)cc4ncc(OCCO)cc34)CC2)cn1

>  <TGT>
DNA-PK (Homo sapiens)

>  <REPORTED MEASUREMENT>
8.00 to 9.00

$$$$
